Where do the numbers come from? From patent CN113956352A.

- TESTED SYSTEM: SARS-CoV-2 RBD蛋白 (ELISA coating antigen) (SARS-CoV-2, UniProt P0DTC2 319-541)
- EXPERIMENT: ELISA, plate coated with SARS-CoV-2 RBD, antibody 1 μg/mL, goat anti-human IgG-HRP
PARAMETER MEASURED: ELISA值 (OD450)
Response body: numeric value in OD450, unit text excluded.

binder="R44 (antibody, V domains shown) VH: QVQLVQSGGGLVQPGGSLRLSCAASEITVSSNYMSWVRQAPGKGLEWVSVLYSGGSTDYADSVKGRFTISRDNSKNTLYLQMNSLRAEDTAVYYCAREVYGMDVWGQGTTVTVSS VL: DIVLTQTPSSLSASVGDRVTITCRASQGISSYLAWYQQKPGKAPKLLIYAASTLQSGVPSRFSGSGSGTDFTLTISSLQPEDFATYYCQELSTYPVTFGQGTKVEIK" numeric_value=1.17
binder="R29 (antibody, V domains shown) VH: EVQLLESGGGLVQPGRSLRLSCAASGFTFDDYGIHWVRQAQGKGLEWVSGISWNSGTIGYADSVKGRFTISRDNAKNSLYLQMNSLRAEDTALYYCAKDRGGKLRWYEREEYYFDYWGQGTLVTVSS VL: SYVLTQPPSVSVAPGQTAKITCGGNDIGRKSVYWYQQKPGQAPILVIYYSSDRPSGIPDRFSGSNSGNTATLTIGRVEAGDEADYYCQVWDSTSDHVIFGGGTKLTVL" numeric_value=1.06
binder="R157 (antibody, V domains shown) VH: QVQLVQSGAEVKKPGSSVKVSCKASGGTFSSYAINWVRQAPGQGLEWMGGIIPILGIANYAQKFQGRVTITADKSTSTAYMELSSLRSEDTAVYYCAREQGYSGSGANYYFDYWGQGTLVTVSS VL: QSVLTQPPSVSGAPGQRVTVSCTGSSSNIGAGYDVHWYQQLPGTAPKLLIYGNTNRPSGVPDRFSGSKSGTSASLAITGLQAEDEADYYCQSYDSSLSDVVFGGGTQLTVL" numeric_value=1.14

Moving on to another binder below.
Look up ELISA值 (OD450) for this binder: R14 (antibody, V domains shown) VH: QVQLVQSGAEVKKPGSSVKVSCKASGGTFSSYTISWVRQAPGQGLEWMGRIIPILGIANYAQKFQGRVTITADKSTSTAYMELSSLRSEDTAVYYCAREIGYSSSGSNYYMDVWGKGTTVTVSS VL: QSVLTQPPSVSGAPGQRVTISCTGSSSNIGAGYDVHWYQQLPGTAPKLLIYGNSNRPSGVPDRFSGSKSGTSASLAITGLQAEDEADYYCQSYDSSLSGVVFGGGTKLTVL
1.01
